Source of measurements: patent US20260184780A1

Study target: T1, hPAR1 (Biotin) peptide (human, not fully specified; biotin on the C-terminal lysine (SKB))
T1 construct: also called PAR1 peptide; PAR1 screening peptide
T1 peptide: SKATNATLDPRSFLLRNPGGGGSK
Protocol details: ELISA, hybridoma supernatant
# maps each entry to its binding to PAR1 ratio
Write it as a number; the unit ratio goes unstated.

These recorded examples may help you get a feel for the data.
Q: If you can, please state the reported binding to PAR1 ratio value of 5H.RF2.A5b.D3.C2 (antibody, IgG2a, V domains shown, also called MoB5H F2) VH: QVQLQQWGAGLLKPSETLALTCAVYGGSLSDYYWSWIRQPPGKGLEWIGEINHSGTTNYNPSLKSRVTISVDTSKKQFSLKLSSVTAADTAVYYCAIEYSNSRGYYYGMDVWGQGTTVTVSS VL: DIQMTQSPSSLSASAGDRITITCRASQTISNYLNWYQQKPGKAPKLLIYAASSLQSGVPSRFSGSGSGTDFTLTISSLQPEDFASYYCRQNYNTPLTFGGGTKVEIK .
A: 1

Q: If you can, please state the reported binding to PAR1 ratio value of 5F RE6.D3.E7 (antibody, IgG2a, V domains shown, also called MoB5F E6) VH: QVQLAESGGGVVQPGRSLRVSCAASGFTFSSYGMHWVRQAPGKGLEWVAVIWYDGTKKYYADSLKGRFTISRDNSKYTLYLQMNSLRADDTALYFCARKGARGITGLDYWGQGTLVTVSS VL: DIQMTQSPSSLSASAGDRITITCRASQSISNYLNWYQQKPGKAPKLLIYAASSLQSGVPSRFSGSGSGTDFTLTISSLQPEDFASYYCRQNYNTPLTFGGGTKVEIK .
A: 1.1

Q: If you can, please state the reported binding to PAR1 ratio value of 5G RG1.D3.C2b (antibody, IgG1, V domains shown, also called MoB5G G1) VH: QVQLVESGGGVVQPGRSLRLSCVASGFTLSSYGMHWVRQAPGKGLEWVAVIWYDGSSKYYTDSVKGRFDISRDNSKNTLYLQMNILRAEDTAVYYCARETILIGGVPFDYWGQGTLVTVSS VL: EIVLTQSPGTLSLSPGERATLSCGASQSIRSNYLAWYQQKPGQAPRLLIYGASSRATGTPDRFSGSGSGTDFTLTITRLEPEDFALYYCQQYGRSYTFGQGTKLEIK .
A: 1.1

// next entry
Q: If you can, please state the reported binding to PAR1 ratio value of 5I.RG1.D6.C1b (antibody, IgG3, V domains shown, also called 51.RG1; MoB5I G1) VH: QVQLQQWGAGLLKPSETLSLACAISSGSFSTYFWRWIRQPPGKGLEWIGEIIHTGSTTYNPSLKSRVTISVDTSKNQLSLKLSSVTAADTAVYYCAFEYSSSGGYYYGMDVWGQGTTVTVSS VL: DIQMTQSPSSLSASVGDRVTITCRASQSISSYLNWYQQIPGKAPNLLIYAASSLRSGVPSRFSGSGSGTDFTLTISSLQPEDFATYYCQQTYSTPLTFGGGTKVEIK .
A: 1
